protein stability index for assorted variants
B1: PDS5B (parent)
chain: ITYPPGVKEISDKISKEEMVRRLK

Variants of: B1
Measurement description: protein stability index of a GFP-peptide fusion (GPS, HEK-293T) (PSI 1-6); higher = more stable;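 also: lentivirally expressed fusions sorted by FACS into six bins by GFP to DsRed ratio, PSI derived from sequencing read proportions per bin multiplied by bin number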
Cond: c terminus: a fixed tail appended
Respond using a number only.

These recorded examples may help you get a feel for the data.
Mut	protein stability index
E17C	2.91
E9F	2.97
I1T	4.96
K13T	3.96

Read the next record carefully.
QUERY: Requested read-out: protein stability index. Entry: `T2I`
RESULT: 2.83
